TEST_NAME: in vitro
PROTOCOL_CONDITIONS: human, 100% human serum
METRIC_NAME: fraction unbound at 2 h

INSERT INTO results (molecule, measured) VALUES
  ('CCn1cc(C(=O)O)c(=O)c2ccc(C)nc21 [E]', 0.24);

---

System: Serattia marcescens IFO 12648
TEST_NAME: antimicrobial activity, serial dilution method on agar plate
Type: cell-based
PROTOCOL_CONDITIONS: inoculum 1 × 10^8 cells/ml; read-out: Minimum Inhibitory Concentration
// assign label 1 if MIC falls strictly below 3 µg/mL, else label 0 (ties count as label 0)

INSERT INTO measurements (compound, measured_on, category_label) VALUES
  ('CC1CCc2c(N3CCN(CC(F)(F)F)CC3)c(Cl)cc3c(=O)c(C(=O)O)cn1c23 (centres unmarked) [c]', 'Serattia marcescens IFO 12648', 'label 1'),
  ('C=CCN1CCN(c2c(Cl)cc3c(=O)c(C(=O)O)cn4c3c2CCC4C)CC1 (centres unmarked) [h]', 'Serattia marcescens IFO 12648', 'label 1'),
  ('CC1Cc2c(N3CCN(C)CC3)c(F)cc3c(=O)c(C(=O)O)cn1c23 (centres unmarked) [a]', 'Serattia marcescens IFO 12648', 'label 1'),
  ('O=CN1CCN(c2ccc3c(=O)c(C(=O)O)cn4c3c2CCC4)CC1 [Compound M]', 'Serattia marcescens IFO 12648', 'label 0'),
  ('CC1CCc2c(N3CCN(CCO)CC3)c(F)cc3c(=O)c(C(=O)O)cn1c23 (centres unmarked) [f]', 'Serattia marcescens IFO 12648', 'label 1'),
  ('C#CCN1CCN(c2c(Cl)cc3c(=O)c(C(=O)O)cn4c3c2CCC4C)CC1 (centres unmarked) [i]', 'Serattia marcescens IFO 12648', 'label 1'),
  ('CS(=O)(=O)N1CCN(c2ccc3c(=O)c(C(=O)O)cn4c3c2CCC4)CC1 [Compound O]', 'Serattia marcescens IFO 12648', 'label 0'),
  ('CC1CCc2c(N3CCN(C=O)CC3)c(Cl)cc3c(=O)c(C(=O)O)cn1c23 (centres unmarked) [Compound V]', 'Serattia marcescens IFO 12648', 'label 0'),
  ('CC1Cc2c(N3CCN(C)CC3)c(Cl)cc3c(=O)c(C(=O)O)cn1c23 (centres unmarked) [Compound Z]', 'Serattia marcescens IFO 12648', 'label 1'),
  ('CC1(C)SC2C(NC(=O)C(NC(=O)c3cn4c5c(c(N6CCN(S(C)(=O)=O)CC6)ccc5c3=O)CCC4)c3ccccc3)C(=O)N2C1C(=O)O (centres unmarked) [Compound J, reference compound]', 'Serattia marcescens IFO 12648', 'label 0'),
  ('O=C(O)c1cn2c3c(c(N4CCN(C(=O)c5ccccc5)CC4)ccc3c1=O)CCC2 [Compound N]', 'Serattia marcescens IFO 12648', 'label 0'),
  ('O=C(O)c1cn2c3c(c(N4CCN(Cc5ccccc5)CC4)ccc3c1=O)CCC2 [Compound R]', 'Serattia marcescens IFO 12648', 'label 0'),
  ('CC1Cc2c(Cl)ccc3c(=O)c(C(=O)O)cn1c23 (centres unmarked) [G]', 'Serattia marcescens IFO 12648', 'label 0'),
  ('CC1(C)SC2C(NC(=O)C(NC(=O)c3cn4c5c(c(N6CCNCC6)ccc5c3=O)CCC4)c3ccccc3)C(=O)N2C1C(=O)O (centres unmarked) [I]', 'Serattia marcescens IFO 12648', 'label 0'),
  ('CC1CCc2c(N3CCN(C)CC3)c(Cl)cc3c(=O)c(C(=O)O)cn1c23 (centres unmarked) [Compound U]', 'Serattia marcescens IFO 12648', 'label 1'),
  ('CN1CCN(c2ccc3c(=O)c(C(=O)O)cn4c3c2CCC4)CC1 [Compound L]', 'Serattia marcescens IFO 12648', 'label 0'),
  ('CC1CCc2c(N3CCN(C)CC3)c(F)cc3c(=O)c(C(=O)O)cn1c23 (centres unmarked) [Compound W]', 'Serattia marcescens IFO 12648', 'label 1');

Origin of the recorded values: patent US4416884A
